The entries below come with measured logP values attached.
experiment: LogP (Table 1); type: physicochemical

# structure.smiles, logP
data = [
    ("O=C(N[C@H]1CC[C@H]1c1ccc(F)cc1F)c1scnc1C(F)F", 2.4),
    ("O=C(N[C@H]1CC[C@H]1c1ccc(F)cc1F)c1scnc1C(F)(F)F", 2.71),
    ("O=C(N[C@H]1CC[C@H]1c1ccc(Cl)cc1Cl)c1scnc1C(F)(F)F", 3.44),
    ("O=C(N[C@H]1CC[C@H]1c1ccc(Cl)cc1)c1scnc1C(F)(F)F", 3.21),
    ("O=C(N[C@H]1CC[C@H]1c1ccc(Cl)cc1Cl)c1scnc1C(F)F", 3.25),
    ("O=C(N[C@H]1CC[C@H]1c1ccc(F)cc1Cl)c1scnc1C(F)(F)F", 2.92),
]
